# test.description: Portal plasma pharmacokinetics after oral administration in portal vein cannulated, freely moving rats
# Type: in vivo, Wistar ST rats
# settings: male, Wistar ST, rat, portal vein plasma, 100 mg/kg; analyte HT in portal plasma after oral administration
assay.readout: Tmax (min)
A number alone suffices; assume min.

Name the recorded Tmax of the item OCCc1ccc(O)c(O)c1 [Hydroxytyrosol, 2-(3,4-dihydroxyphenyl) ethyl alcohol, reference compound] in your answer.
15

====

# test.description: Portal plasma pharmacokinetics after oral administration in portal vein cannulated, freely moving rats
# Type: in vivo, Wistar ST rats
# settings: analyte HVAOH in portal plasma after oral administration
# Experimental: SPF Wistar ST rats (6 weeks of age, male, 180 ± 20 g of body weight) were purchased from Japan SLC Inc. (Hamamatsu, Japan). The rats were housed in an air-conditioned room at 22 ± 2°C under cycles of 12 hours dark and 12 hours light and given free access to a commercial diet and water for a week. The rats were then fasted for over 16 hours before the experiments. […] All eluted peaks were detected at 279 nm with a diode array detector (SPD-M20A; Shimadzu, Kyoto, Japan). […]
assay.readout: Cmax (µM)
A number alone suffices; assume µM.

Name the recorded Cmax of the item CC=C(C=O)C(CC=O)CC(=O)OCCc1ccc(O)c(O)c1 (stereo not shown) [3,4-DHPEA-EDA] in your answer.
22.2

====

# test.description: Portal plasma pharmacokinetics after oral administration in portal vein cannulated, freely moving rats
# Type: in vivo, Wistar ST rats
# settings: male, Wistar ST, rat, portal vein plasma, 100 mg/kg; analyte HT in portal plasma after oral administration
assay.readout: Cmax (µM)
A number alone suffices; assume µM.

Name the recorded Cmax of the item OCCc1ccc(O)c(O)c1 [Hydroxytyrosol, 2-(3,4-dihydroxyphenyl) ethyl alcohol, reference compound] in your answer.
395

====

# test.description: Portal plasma pharmacokinetics after oral administration in portal vein cannulated, freely moving rats
# Type: in vivo, Wistar ST rats
# settings: male, Wistar ST, rat, 300 mg/kg; analyte Ole in portal plasma, 0→4 h after oral administration; mean ± SEM, triplicate; read-out: AUC (converted)
assay.readout: AUC (µM·h)
A number alone suffices; assume µM·h.

Name the recorded AUC of the item C/C=C1/[C@H](O[C@@H]2O[C@H](CO)[C@@H](O)[C@H](O)[C@H]2O)OC=C(C(=O)OC)[C@H]1CC(=O)OCCc1ccc(O)c(O)c1 [Oleuropein, reference compound] in your answer.
16.9

====

# test.description: Portal plasma pharmacokinetics after oral administration in portal vein cannulated, freely moving rats
# Assay type: in vivo, Wistar ST rats
# settings: analyte HVA in portal plasma after oral administration
assay.readout: Cmax (µM)
A number alone suffices; assume µM.

Name the recorded Cmax of the item CC=C(C=O)C(CC=O)CC(=O)OCCc1ccc(O)c(O)c1 (stereo not shown) [3,4-DHPEA-EDA] in your answer.
21.5

====

# test.description: Portal plasma pharmacokinetics after oral administration in portal vein cannulated, freely moving rats
# Assay type: in vivo, Wistar ST rats
# settings: male, Wistar ST, rat, 300 mg/kg; analyte Ole in portal plasma after oral administration
assay.readout: Cmax (µM)
A number alone suffices; assume µM.

Name the recorded Cmax of the item C/C=C1/[C@H](O[C@@H]2O[C@H](CO)[C@@H](O)[C@H](O)[C@H]2O)OC=C(C(=O)OC)[C@H]1CC(=O)OCCc1ccc(O)c(O)c1 [Oleuropein, reference compound] in your answer.
11.9

====

# test.description: Jugular vein plasma levels after intravenous administration in jugular vein cannulated, freely moving rats
# Assay type: in vivo, Wistar ST rats
# settings: male, Wistar ST, rat, plasma; after intravenous administration, 10 mg/kg; 18.50 μmol/kg; read-out: Ole detected in the plasma at 5 min
# Method: SPF Wistar ST rats (6 weeks of age, male, 180 ± 20 g of body weight) were purchased from Japan SLC Inc. (Hamamatsu, Japan). The rats were housed in an air-conditioned room at 22 ± 2°C under cycles of 12 hours dark and 12 hours light and given free access to a commercial diet and water for a week. The rats were then fasted for over 16 hours before the experiments. […] All eluted peaks were detected at 279 nm with a diode array detector (SPD-M20A; Shimadzu, Kyoto, Japan). […]
assay.readout: concentration at 5 min
Record the result as a number with its unit.

Name the recorded concentration at 5 min of the item C/C=C1/[C@H](O[C@@H]2O[C@H](CO)[C@@H](O)[C@H](O)[C@H]2O)OC=C(C(=O)OC)[C@H]1CC(=O)OCCc1ccc(O)c(O)c1 [Oleuropein, reference compound] in your answer.
502 µM

====

# test.description: Portal plasma pharmacokinetics after oral administration in portal vein cannulated, freely moving rats
# Type: in vivo, Wistar ST rats
# settings: analyte HT in portal plasma after oral administration
assay.readout: Cmax (µM)
A number alone suffices; assume µM.

Name the recorded Cmax of the item CC=C(C=O)C(CC=O)CC(=O)OCCc1ccc(O)c(O)c1 (stereo not shown) in your answer.
179

====

# test.description: Jugular vein plasma levels after intravenous administration in jugular vein cannulated, freely moving rats
# Assay type: in vivo, Wistar ST rats
# settings: analyte HT, at 5 min after intravenous administration, 10 mg/kg; read-out: C max of HT in plasma
assay.readout: Cmax

Name the recorded Cmax of the item CC=C(C=O)C(CC=O)CC(=O)OCCc1ccc(O)c(O)c1 (stereo not shown) in your answer.
~131 µM
